- procedure_text: Electrochemical behaviour of the compound assessed as peak potential using disposable screen-printed carbon electrodes
- Type: physicochemical
Please enter 1.0 where Ep is greater than or equal to 700 mV, and 0.0 where it is lower.

Use these answered entries as a reference point.
>>> category_label("O=C(O)c1ccc(O)cc1")
1.0
>>> category_label("COc1cc(/C=C/C(=O)O)ccc1O [FERULATE]")
0.0
>>> category_label("COc1cc(C(=O)O)ccc1O")
1.0
>>> category_label("O=C(O)/C=C/c1cccc(O)c1")
1.0
>>> category_label("O=C(O)/C=C/c1ccc(O)c(O)c1")
0.0
>>> category_label("O=C(O)/C=C/c1ccc(O)cc1")
0.0
>>> category_label("O=C(O)c1ccccc1O")
1.0
>>> category_label("O=C(O)c1ccc(O)c(O)c1")
0.0
>>> category_label("O=C(O)/C=C/c1ccccc1O")
1.0

Note: attention shifts to another entry.
Challenge: Is Ep at least 700 mV? Consider COc1cc(C(=O)O)cc(OC)c1O
Response given: 0.0

---

- procedure_text: Antioxidant activity assessed as alkoxyl radical scavenging activity by measuring rate constant by ESR spin trapping method
- Assay type: functional
measured_property: K (×10⁵ /M/s)
Answer with a number only, understood to be in ×10⁵ /M/s.

# annotated cases, reported K shown
>>> measurement("Oc1nc(O)c2nc(O)[nH]c2n1")
106
>>> measurement("Cc1c(C)c2c(c(C)c1O)CCC(C)(C(=O)O)O2 (stereo not drawn)")
48.3
>>> measurement("C[C@@H]1O[C@@H](OC[C@H]2O[C@@H](Oc3c(-c4ccc(O)c(O)c4)oc4cc(O)cc(O)c4c3=O)[C@H](O)[C@@H](O)[C@@H]2O)[C@H](O)[C@H](O)[C@H]1O")
69
>>> measurement("CC(=O)N[C@@H](CS)C(=O)O")
19.3

Challenge: I am curious: what K value has been reported for O=C(O)/C=C/c1ccc(O)c(O)c1 [CAFFEIC ACID] ?
Response given: 75.9

Challenge: I am curious: what K value has been reported for O=C(/C=C/c1ccc(O)c(O)c1)O[C@@H]1C[C@](O)(C(=O)O)C[C@@H](O)[C@H]1O ?
Response given: 111

Challenge: I am curious: what K value has been reported for O=c1c(-c2ccc(O)cc2)coc2cc(O)cc(O)c12 ?
Response given: 20.7

Challenge: I am curious: what K value has been reported for N[C@@H](CCC(=O)N[C@@H](CS)C(=O)NCC(=O)O)C(=O)O ?
Response given: 27.6

---

- procedure_text: Antioxidant activity assessed as singlet oxygen scavenging activity by measuring rate constant using VIS irradiation by ESR spin trapping method
- Type: functional
Please enter fulfilled where K is greater than or equal to 30 ×10⁷ /M/s, and not fulfilled where it is lower.

Use these answered entries as a reference point.
>>> category_label("O=C(O)/C=C/c1ccc(O)c(O)c1")
"fulfilled"
>>> category_label("N[C@@H](CCC(=O)N[C@@H](CS)C(=O)NCC(=O)O)C(=O)O")
"fulfilled"
>>> category_label("O=c1c(-c2ccc(O)cc2)coc2cc(O)cc(O)c12")
"not fulfilled"
>>> category_label("Oc1nc(O)c2nc(O)[nH]c2n1")
"not fulfilled"
>>> category_label("CC(=O)N[C@@H](CS)C(=O)O")
"not fulfilled"
>>> category_label("Cc1c(C)c2c(c(C)c1O)CCC(C)(C(=O)O)O2 (stereo not drawn)")
"not fulfilled"
>>> category_label("C[C@@H]1O[C@@H](OC[C@H]2O[C@@H](Oc3c(-c4ccc(O)c(O)c4)oc4cc(O)cc(O)c4c3=O)[C@H](O)[C@@H](O)[C@@H]2O)[C@H](O)[C@H](O)[C@H]1O")
"fulfilled"

Note: attention shifts to another entry.
Challenge: Is K at least 30 ×10⁷ /M/s? Consider O=C(/C=C/c1ccc(O)c(O)c1)O[C@@H]1C[C@](O)(C(=O)O)C[C@@H](O)[C@H]1O
Response given: fulfilled

---

Entries and their Ep
- procedure_text: Electrochemical behaviour of the compound assessed as peak potential
- Format: physicochemical
Answer with a number only, understood to be in mV.

>>> measurement("O=C(O)/C=C/c1ccc(O)c(O)c1")
183

Challenge: I am curious: what Ep value has been reported for O=C(O)/C=C/c1ccc(O)cc1 ?
Response given: 736

Challenge: I am curious: what Ep value has been reported for COc1cc(/C=C/C(=O)O)ccc1O [FERULATE] ?
Response given: 335

Challenge: I am curious: what Ep value has been reported for O=C(O)/C=C/c1cc(O)c(O)c(O)c1 ?
Response given: 384

---

Entries and their Ep
- procedure_text: Electrochemical behaviour of the compound assessed as peak potential
- Format: physicochemical

# annotated cases, reported Ep shown
>>> measurement("O=C(O)c1cc(O)c(O)c(O)c1")
"110 to 544 mV"
>>> measurement("O=C(O)c1ccc(O)c(O)c1")
"188 to 317 mV"

API: the following record is the query input.
Challenge: I am curious: what Ep value has been reported for COc1cc(/C=C/C(=O)O)cc(OC)c1O [SINAPINATE] ?
Response given: 188 to 295 mV
